biological target: Amyloid-beta precursor protein (Homo sapiens, UniProt P05067); assay: Inhibition of HFIP-pretreated amyloid beta (1 to 42) (unknown origin) self-induced aggregation after 48 hrs by thioflavin T-based fluorometric assay
Sequence (P05067 whole entry): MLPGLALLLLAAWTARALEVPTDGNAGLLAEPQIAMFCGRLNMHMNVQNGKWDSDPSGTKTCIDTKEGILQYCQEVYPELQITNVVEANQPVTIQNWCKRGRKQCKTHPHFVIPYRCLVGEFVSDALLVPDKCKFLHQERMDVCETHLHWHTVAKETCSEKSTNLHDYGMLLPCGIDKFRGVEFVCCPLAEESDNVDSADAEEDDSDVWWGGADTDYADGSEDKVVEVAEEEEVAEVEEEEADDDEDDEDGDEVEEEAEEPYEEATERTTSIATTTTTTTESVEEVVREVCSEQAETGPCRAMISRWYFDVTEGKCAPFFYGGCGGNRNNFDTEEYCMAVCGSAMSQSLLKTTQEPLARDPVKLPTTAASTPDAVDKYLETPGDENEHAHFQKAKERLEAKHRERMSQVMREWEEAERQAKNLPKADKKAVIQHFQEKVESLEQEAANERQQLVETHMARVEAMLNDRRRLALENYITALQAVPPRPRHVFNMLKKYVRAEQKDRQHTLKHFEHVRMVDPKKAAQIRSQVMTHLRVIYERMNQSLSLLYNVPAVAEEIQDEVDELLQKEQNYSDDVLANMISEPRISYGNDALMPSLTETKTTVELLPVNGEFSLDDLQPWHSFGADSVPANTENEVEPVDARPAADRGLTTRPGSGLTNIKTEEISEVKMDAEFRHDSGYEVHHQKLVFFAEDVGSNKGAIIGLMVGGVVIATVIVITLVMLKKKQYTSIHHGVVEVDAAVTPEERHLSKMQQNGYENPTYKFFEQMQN
pIC50: −log10 of the molar value.

compound-string	pIC50
CCOc1cc(CNc2ccc(OC)cc2)ccc1Oc1ccnc2cc(Cl)ccc12	4.33
CCOc1cc(CNc2ccccc2)ccc1Oc1ccnc2cc(Cl)ccc12	4.35

Source of measurements: ChEMBL document CHEMBL4368857
